Values were extracted from the supplement of paper PMC10307832.

# Tested on: NCI-H322M
# method summary: relative viability (nuclei count vs DMSO), 5 days (fraction); higher = more cells survive
# test parameters: first compound 0.5 µM
Just a reminder that ties go to Not satisfied: only relative viability strictly below 0.7 counts as Satisfied.

| molecule | class name |
| --- | --- |
| CC1(C)CCC(c2ccc(Cl)cc2)=C(CN2CCN(c3ccc(C(=O)NS(=O)(=O)c4ccc(N[C@H](CCN5CCOCC5)CSc5ccccc5)c(S(=O)(=O)C(F)(F)F)c4)cc3)CC2)C1 [Navitoclax] + C[C@@H](Oc1cc(-c2cnn(C3CCNCC3)c2)cnc1N)c1c(Cl)ccc(F)c1Cl [Crizotinib] (partner 1 µM) | Not satisfied |
| CC1(C)CCC(c2ccc(Cl)cc2)=C(CN2CCN(c3ccc(C(=O)NS(=O)(=O)c4ccc(N[C@H](CCN5CCOCC5)CSc5ccccc5)c(S(=O)(=O)C(F)(F)F)c4)cc3)CC2)C1 [Navitoclax] + Nc1ncn([C@H]2C[C@H](O)[C@@H](CO)O2)c(=O)n1 [Decitabine] (partner 2 µM) | Not satisfied |
| CC1(C)CCC(c2ccc(Cl)cc2)=C(CN2CCN(c3ccc(C(=O)NS(=O)(=O)c4ccc(N[C@H](CCN5CCOCC5)CSc5ccccc5)c(S(=O)(=O)C(F)(F)F)c4)cc3)CC2)C1 [Navitoclax] + Nc1nc2[nH]cc(CCc3ccc(C(=O)N[C@@H](CCC(=O)O)C(=O)O)cc3)c2c(=O)[nH]1 [Pemetrexed] (partner 0.2 µM) | Satisfied |
| CC1(C)CCC(c2ccc(Cl)cc2)=C(CN2CCN(c3ccc(C(=O)NS(=O)(=O)c4ccc(N[C@H](CCN5CCOCC5)CSc5ccccc5)c(S(=O)(=O)C(F)(F)F)c4)cc3)CC2)C1 [Navitoclax] + C[C@]1(O)C[C@@H](c2nc(-c3ccc4ccc(-c5ccccc5)nc4c3)c3c(N)nccn32)C1 [Linsitinib] (partner 1 µM) | Not satisfied |
| CC1(C)CCC(c2ccc(Cl)cc2)=C(CN2CCN(c3ccc(C(=O)NS(=O)(=O)c4ccc(N[C@H](CCN5CCOCC5)CSc5ccccc5)c(S(=O)(=O)C(F)(F)F)c4)cc3)CC2)C1 [Navitoclax] + Cc1nc(NC(=O)N2CCC[C@H]2C(N)=O)sc1-c1ccnc(C(C)(C)C(F)(F)F)c1 [Alpelisib] (partner 2 µM) | Satisfied |

* * *

# Tested on: NCI-H2405
# method summary: relative viability (nuclei count vs DMSO), 5 days (fraction); higher = more cells survive
# test parameters: first compound 0.01 µM
Listing: relative viability of selected compounds

| compound | relative viability |
| --- | --- |
| NC(=O)Nc1cc(-c2cccc(F)c2)sc1C(=O)N[C@H]1CCCNC1 [AZD7762] + C[C@]1(O)C[C@@H](c2nc(-c3ccc4ccc(-c5ccccc5)nc4c3)c3c(N)nccn32)C1 [Linsitinib] (partner 1 µM) | 1 |
| NC(=O)Nc1cc(-c2cccc(F)c2)sc1C(=O)N[C@H]1CCCNC1 [AZD7762] + CC(=O)Nc1cccc(-n2c(=O)n(C3CC3)c(=O)c3c(Nc4ccc(I)cc4F)n(C)c(=O)c(C)c32)c1 [Trametinib] (partner 0.02 µM) | 0.744 |
| NC(=O)Nc1cc(-c2cccc(F)c2)sc1C(=O)N[C@H]1CCCNC1 [AZD7762] + N=C(N)NC(=N)NCCc1ccccc1 [Phenformin] (partner 250 µM) | 0.4 |

* * *

# Test system: NCI-H2342
# method summary: relative viability (nuclei count vs DMSO), 5 days (fraction); higher = more cells survive
# test parameters: first compound 1.265 µM
relative viability vs 0.7: less than gives true (1); not less than gives false (0).

| molecule | class name |
| --- | --- |
| O=C(O)c1ccc(-c2c[nH]c3ncc(-c4ccccc4)cc23)cc1C1CCCC1 + CCNC(=O)c1noc(-c2cc(C(C)C)c(O)cc2O)c1-c1ccc(CN2CCOCC2)cc1 [Luminespib] (partner 0.01 µM) | true (1) |
| O=C(O)c1ccc(-c2c[nH]c3ncc(-c4ccccc4)cc23)cc1C1CCCC1 + Cc1nc(Nc2ncc(C(=O)Nc3c(C)cccc3Cl)s2)cc(N2CCN(CCO)CC2)n1 [Dasatinib] (partner 0.075 µM) | true (1) |
| O=C(O)c1ccc(-c2c[nH]c3ncc(-c4ccccc4)cc23)cc1C1CCCC1 + Nc1nc2[nH]cc(CCc3ccc(C(=O)N[C@@H](CCC(=O)O)C(=O)O)cc3)c2c(=O)[nH]1 [Pemetrexed] (partner 0.2 µM) | false (0) |
| O=C(O)c1ccc(-c2c[nH]c3ncc(-c4ccccc4)cc23)cc1C1CCCC1 + COc1cccc2cc(-c3nc([C@H]4CC[C@H](C(=O)O)CC4)n4ncnc(N)c34)[nH]c12 [OSI-027] (partner 0.5 µM) | true (1) |

* * *

relative viability values, listed per item
# Test system: SW 900
# method summary: relative viability (nuclei count vs DMSO), 5 days (fraction); higher = more cells survive
# test parameters: first compound 0.253 µM
measured property: relative viability

| compound | measured property | measurement |
| --- | --- | --- |
| C=C1C(=O)O[C@@H](CCCCCCCC)[C@@H]1C(=O)O [C-75] + Nc1ncn([C@H]2C[C@H](O)[C@@H](CO)O2)c(=O)n1 [Decitabine] (partner 2 µM) | relative viability | 0.489 |
| C=C1C(=O)O[C@@H](CCCCCCCC)[C@@H]1C(=O)O [C-75] + Nc1nc2[nH]cc(CCc3ccc(C(=O)N[C@@H](CCC(=O)O)C(=O)O)cc3)c2c(=O)[nH]1 [Pemetrexed] (partner 0.2 µM) | relative viability | 0.462 |
| C=C1C(=O)O[C@@H](CCCCCCCC)[C@@H]1C(=O)O [C-75] + Cc1nc(Nc2ncc(C(=O)Nc3c(C)cccc3Cl)s2)cc(N2CCN(CCO)CC2)n1 [Dasatinib] (partner 0.075 µM) | relative viability | 0.796 |

* * *

# Tested on: NCI-H1793
# method summary: relative viability (nuclei count vs DMSO), 5 days (fraction); higher = more cells survive
# test parameters: first compound 0.5 µM

| compound | relative viability |
| --- | --- |
| CC1(C)CCC(c2ccc(Cl)cc2)=C(CN2CCN(c3ccc(C(=O)NS(=O)(=O)c4ccc(N[C@H](CCN5CCOCC5)CSc5ccccc5)c(S(=O)(=O)C(F)(F)F)c4)cc3)CC2)C1 [Navitoclax] + CS(=O)(=O)CCNCc1ccc(-c2ccc3ncnc(Nc4ccc(OCc5cccc(F)c5)c(Cl)c4)c3c2)o1 [Lapatinib] (partner 2 µM) | 0.557 |

* * *

# Test system: NCI-H2405
# method summary: relative viability (nuclei count vs DMSO), 5 days (fraction); higher = more cells survive
# test parameters: first compound 0.01581 µM

| compound | subject of test | relative viability |
| --- | --- | --- |
| CC1(C)CCC(c2ccc(Cl)cc2)=C(CN2CCN(c3ccc(C(=O)NS(=O)(=O)c4ccc(N[C@H](CCN5CCOCC5)CSc5ccccc5)c(S(=O)(=O)C(F)(F)F)c4)cc3)CC2)C1 [Navitoclax] + Nc1nc2[nH]cc(CCc3ccc(C(=O)N[C@@H](CCC(=O)O)C(=O)O)cc3)c2c(=O)[nH]1 [Pemetrexed] (partner 0.2 µM) | NCI-H2405 | 1.07 |
| CC1(C)CCC(c2ccc(Cl)cc2)=C(CN2CCN(c3ccc(C(=O)NS(=O)(=O)c4ccc(N[C@H](CCN5CCOCC5)CSc5ccccc5)c(S(=O)(=O)C(F)(F)F)c4)cc3)CC2)C1 [Navitoclax] + COc1cccc2cc(-c3nc([C@H]4CC[C@H](C(=O)O)CC4)n4ncnc(N)c34)[nH]c12 [OSI-027] (partner 0.5 µM) | NCI-H2405 | 0.682 |
| CC1(C)CCC(c2ccc(Cl)cc2)=C(CN2CCN(c3ccc(C(=O)NS(=O)(=O)c4ccc(N[C@H](CCN5CCOCC5)CSc5ccccc5)c(S(=O)(=O)C(F)(F)F)c4)cc3)CC2)C1 [Navitoclax] + Cc1nc(Nc2ncc(C(=O)Nc3c(C)cccc3Cl)s2)cc(N2CCN(CCO)CC2)n1 [Dasatinib] (partner 0.075 µM) | NCI-H2405 | 0.209 |
| CC1(C)CCC(c2ccc(Cl)cc2)=C(CN2CCN(c3ccc(C(=O)NS(=O)(=O)c4ccc(N[C@H](CCN5CCOCC5)CSc5ccccc5)c(S(=O)(=O)C(F)(F)F)c4)cc3)CC2)C1 [Navitoclax] + CCNC(=O)c1noc(-c2cc(C(C)C)c(O)cc2O)c1-c1ccc(CN2CCOCC2)cc1 [Luminespib] (partner 0.01 µM) | NCI-H2405 | 0.727 |

* * *

# System: COR-L 105
# method summary: relative viability (nuclei count vs DMSO), 5 days (fraction); higher = more cells survive
# test parameters: first compound 2.53 µM
# reported relative viability; entries follow

| compound | relative viability |
| --- | --- |
| Oc1nc(-c2ccc(C(F)(F)F)cc2)nc2c1CSCC2 [XAV939] + N=C(N)NC(=N)NCCc1ccccc1 [Phenformin] (partner 250 µM) | 0.381 |
| Oc1nc(-c2ccc(C(F)(F)F)cc2)nc2c1CSCC2 [XAV939] + CS(=O)(=O)CCNCc1ccc(-c2ccc3ncnc(Nc4ccc(OCc5cccc(F)c5)c(Cl)c4)c3c2)o1 [Lapatinib] (partner 2 µM) | 0.301 |
| Oc1nc(-c2ccc(C(F)(F)F)cc2)nc2c1CSCC2 [XAV939] + O=C(CCCCCCC(=O)Nc1ccccc1)NO [Vorinostat] (partner 1 µM) | 0.65 |
